systemTested: T1, rat IAPP (rat, UniProt P12969 38-74)
T1 construct: Used as the soluble analyte in the Biacore assay in place of human IAPP; also called rat islet amyloid polypeptide
T1 peptide (looked up): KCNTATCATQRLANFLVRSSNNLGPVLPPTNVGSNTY
protocol: SPR (Biacore), antibody captured on anti-human CM5 chip, rat IAPP as analyte, global 1:1 fit
observationType: Kd (nM)
Your answer is read as nM, so omit the unit and give the number.

binder	recordedValue
humanized 3H6 antibody version H1L1 (antibody, V domains shown, it was captured on an anti-human chip; also called h3H6-H1L1) VH: EVQLVESGGGLVQPGGSLKLSCAASGFTFSNYWMYWVRQAPGKGLEWVGEIRLKSDNYATHYAESVKGRFTISRDDSKNTVYLQMDSLKTEDTAVYYCTIFDYWGQGTLVTVSS VL: DVVMTQSPLSLPVTLGQPASISCKSSQSLLDSDGKTYLNWLQQRPGQSPKRLIYLVSKLDSGVPDRFSGSGSGTDFTLKISRVEAEDVGVHYCWQGRHFPYTFGQGTKLEIK	20.4
humanized 3H6 antibody version H2L2 (antibody, V domains shown, also called h3H6-H2L2) VH: EVQLVESGGGLVQPGGSLKLSCAASGFTFSNYWMYWVRQAPGKGLEWVGEIRLKSDNYATHYAESVKGRFTISRDDSKNTAYLQMDSLKTEDTAVYYCTTFDYWGQGTLVTVSS VL: DVVMTQSPLSLPVTLGQPASISCKSSQSLLDSDGKTYLNWLQQRPGQSPKRLIYLVSKLDSGVPDRFSGSGSGTDFTLKISRVEAEDVGVYYCWQGRHFPYTFGQGTKLEIK	85.4
humanized 3H6 antibody version H2L1 (antibody, V domains shown, also called h3H6-H2L1) VH: EVQLVESGGGLVQPGGSLKLSCAASGFTFSNYWMYWVRQAPGKGLEWVGEIRLKSDNYATHYAESVKGRFTISRDDSKNTAYLQMDSLKTEDTAVYYCTTFDYWGQGTLVTVSS VL: DVVMTQSPLSLPVTLGQPASISCKSSQSLLDSDGKTYLNWLQQRPGQSPKRLIYLVSKLDSGVPDRFSGSGSGTDFTLKISRVEAEDVGVHYCWQGRHFPYTFGQGTKLEIK	34.5

Prompt: What measured Kd goes with humanized 3H6 antibody version H3L2 (antibody, V domains shown, also called h3H6-H3L2) VH: EVQLVESGGGLVQPGGSLKLSCAASGFTFSNYWMYWVRQAPGKGLEWVGEIRLKSDNYATHYAESVKGRFTISRDDSKNTAYLQMDSLKTEDTAVYYCTIFDYWGQGTLVTVSS VL: DVVMTQSPLSLPVTLGQPASISCKSSQSLLDSDGKTYLNWLQQRPGQSPKRLIYLVSKLDSGVPDRFSGSGSGTDFTLKISRVEAEDVGVYYCWQGRHFPYTFGQGTKLEIK ?
Completion: 33.2
